Kindly state Signal (peptides that bind to 23K21 and 8I10) for each of the entries shown.
# Tested on: HuM2e antibody 23K12
# Assay type: binding, human

Recorded Signal (peptides that bind to 23K21 and 8I10), per entry:
127 (CSLLTEVETCSLLTEVETC; epitope peptide) [compound 127] :: 1647
672 (SLLTEVETPIRNEWGRRCNDSSD; epitope peptide) [compound 672] :: 735
322 (SKLTEVETPIRNEWGCRCNDSSD; epitope peptide) [compound 322] :: 1784
283 (CSLLTEVGSLLTEV; epitope peptide) [compound 283] :: 2494
471 (SLLTEEETPIRNEWGCRCNDSSD; epitope peptide) [compound 471] :: 1220

Below is a list of substances. For each, state its recorded Signal (peptides that bind to 23K21 and 8I10).
1. 406 (SLLTEVETPIRNEWGCRCNDFSD; epitope peptide) [compound 406]
2. 706 (SLLTEVETPIRNEWGCRCADSSD; epitope peptide) [compound 706]
3. 467 (SLLTEVENPIRNEWGCRCNDSSD; epitope peptide) [compound 467]
4. 464 (SLLTEVGSLCTEV; epitope peptide) [compound 464]

1: 788; 2: 712; 3: 1245; 4: 1256
